Where these numbers come from: PubChem BioAssay AID1963961

Would you kindly list viability, T/C for each of these compounds?
# System: K98450-129-R-PDC multicell spheroids, viability;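 note: spheroids exposed to agents for seven days before read-out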
# protocol_description: Anticancer human tumor K98450-129-R-PDC patient-derived colon adenocarcinoma cell line growth inhibition [PI3K]
# test_settings: second compound 0.00316 µM; first compound 0.0316 µM; hits give low values
The answer is to be given in %; state only the numeric part.

Return reported viability, T/C; argument: C=CC(=O)N1CCN(c2nc(=O)n(-c3c(C)ccnc3C(C)C)c3nc(-c4c(O)cccc4F)c(F)cc23)C(C)C1 (centres undefined) + CC(Nc1ccc2c(c1)OCCn1cc(N3C(=O)OCC3C(F)F)nc1-2)C(N)=O
108

viability, T/C lookup needed for Cn1nccc1Nc1nccc(-c2ccn(C(CO)c3ccc(Cl)c(F)c3)c(=O)c2)n1 (centres undefined) + COc1c(OCCCN2CCOCC2)ccc2c3n(c(=NC(=O)c4cnc(N)nc4)nc12)CCN3 , thanks.
101

Give its viability, T/C value. Item: Cn1nccc1Nc1nccc(-c2ccn(C(CO)c3ccc(Cl)c(F)c3)c(=O)c2)n1 (centres undefined) + CC(Nc1ccc2c(c1)OCCn1cc(N3C(=O)OCC3C(F)F)nc1-2)C(N)=O
109

Recorded viability, T/C for C#Cc1c(F)ccc2cc(O)cc(-c3ncc4c(N5CC6CCC(C5)N6)nc(OCC56CCCN5CC(F)C6)nc4c3F)c12 (centres undefined) + COc1c(OCCCN2CCOCC2)ccc2c3n(c(=NC(=O)c4cnc(N)nc4)nc12)CCN3 , please?
114
